- Test system: B6C3F1 mice, B16 melanoma ip, median survival T/C
- experimentDescription: NCI In Vivo Anticancer Drug Screen. Data for tumor model B16 Melanoma (intraperitoneal) in B6C3F1 mice
- protocolConditions: endpoint: median survival time; dose: 0.75 mg/kg/injection; schedule: Q01DX009 (ip); vehicle: saline with Tween-80; higher = longer survival
Toxic doses and inconclusive results are not listed.
Each item that follows carries a reported T/C.

Here's what some known entries look like.
compound="c1ccc2c(c1)[As]=c1ccccc1=[As]2 (centres undefined)" reportedproperty=T/C reading="105 % of control"
compound=CN=C(N)N/N=C(\C)c1ccc2c(c1)Cc1cc(/C(C)=N/NC(N)=NC)ccc1-2 reportedproperty=T/C reading="97 % of control"
compound=COc1cc(/C=C/[N+](=O)[O-])cc(Br)c1OC reportedproperty=T/C reading="102 % of control"

q: What does the record list as T/C for "CN(C)CCN1C(=O)c2cccc3cc([N+](=O)[O-])cc(c23)C1=O" ?
a: 107 % of control

###

- Test system: B6C3F1 mice, B16 melanoma ip, median survival T/C
- experimentDescription: NCI In Vivo Anticancer Drug Screen. Data for tumor model B16 Melanoma (intraperitoneal) in B6C3F1 mice
- protocolConditions: endpoint: median survival time; dose: 50.0 mg/kg/injection; schedule: Q01DX009 (ip); vehicle: saline
Toxic doses and inconclusive results are not listed. The calls were made as follows: active = survival T/C of 150% or more; inactive = T/C below 125% in these data.
Entry note: the call must match one of active, inactive

Reference set (6 entries):
molecule=CN(C)CCNc1ccc([N+](=O)[O-])c2sc3ccccc3c(=O)c12 tgt="B6C3F1 mice, B16 melanoma ip, median survival T/C" qualitativelabel=inactive
molecule="CN(C)CC1CCCC(CN(C)C)C1=O (centres undefined)" tgt="B6C3F1 mice, B16 melanoma ip, median survival T/C" qualitativelabel=inactive
molecule="NCCC(=O)NC(Cc1cnc[nH]1)C(=O)O (centres undefined)" tgt="B6C3F1 mice, B16 melanoma ip, median survival T/C" qualitativelabel=inactive
molecule="O=C1C=CC(=O)O1 (tested in a mixture with another compound)" tgt="B6C3F1 mice, B16 melanoma ip, median survival T/C" qualitativelabel=inactive
molecule=NC(N)=N/N=C/c1ccc(Cl)cc1Cl tgt="B6C3F1 mice, B16 melanoma ip, median survival T/C" qualitativelabel=inactive
molecule=CN(C)CCC(=O)C(=Cc1ccc(O)cc1)C(=O)CCN(C)C tgt="B6C3F1 mice, B16 melanoma ip, median survival T/C" qualitativelabel=inactive

q: Any idea what this test logged for "CCC(C(=O)O)C(=O)O.[NH2-].[NH2-].[Pt+2]" ?
a: inactive

q: Any idea what this test logged for "CNC(=O)ON(C(C)=O)C(=O)NC" ?
a: inactive

q: Any idea what this test logged for Nc1nc2ncc(CNc3ccc(C(=O)NC(CCC(=O)O)C(=O)O)cc3)nc2c(=O)[nH]1 (centres undefined) ?
a: inactive

q: Any idea what this test logged for "N=C(N)SCc1c2ccccc2c(CSC(=N)N)c2ccccc12" ?
a: active

###

- Tested on: B6C3F1 mice, B16 melanoma ip, median survival T/C
- experimentDescription: NCI In Vivo Anticancer Drug Screen. Data for tumor model B16 Melanoma (intraperitoneal) in B6C3F1 mice
- protocolConditions: endpoint: median survival time; dose: 50.0 mg/kg/injection; schedule: Q01DX009 (ip); vehicle: Klucel (hydroxypropylcellulose) (HPC)
Inconclusive results and toxic doses are left out. Rule for the calls: active = survival T/C of 150% or more; inactive = T/C below 125% in these data.
Entry note: the call must match one of 1 = active, -1 = inactive

Reference set (2 entries):
molecule=O=c1[nH]cc(O)c(=O)[nH]1 qualitativelabel=-1
molecule="COC1C(CO)OC(n2cnc3c(=S)nc(N)[nH]c32)C1O (stereo not drawn)" qualitativelabel=-1

q: Any idea what this test logged for CC(C)(C)OC(=O)NC(CC(=O)OCc1ccccc1)C(=O)ON1C(=O)CCC1=O (stereo not drawn) ?
a: -1

q: Any idea what this test logged for "Cc1ccc2c(ccc(CC(=S)[S-])[n+]2C)c1" ?
a: -1

q: Any idea what this test logged for CC(C)(C)SCC(NC(=O)OCC1c2ccccc2-c2ccccc21)C(=O)O (stereo not drawn) ?
a: -1

q: Any idea what this test logged for "O=S(=O)(SC(S(=O)(=O)c1ccccc1)S(=O)(=O)c1ccccc1)c1ccccc1" ?
a: -1

q: Any idea what this test logged for O=C(O)C1CCCN1C(=O)OCc1ccccc1 (stereo not drawn) ?
a: -1

q: Any idea what this test logged for "NC(N)=NS(=O)(=O)c1ccc(NCc2c3ccccc3nc3ccccc23)cc1" ?
a: 1

q: Any idea what this test logged for "COC1=C(NC(C)=O)C(=O)c2nc(-c3nc(C(=O)O)c(C)c(-c4ccc(OC)c(OC)c4O)c3N)ccc2C1=O" ?
a: -1

q: Any idea what this test logged for CC(C)(C)OC(=O)NCCCCC(NC(=O)OCc1ccccc1)C(=O)O (stereo not drawn) ?
a: -1

q: Any idea what this test logged for "Cc1cc(N2C(=O)CCSC2=S)ccc1Cl" ?
a: -1

q: Any idea what this test logged for O=c1[nH]c(=O)n(C2CC(O)C(CO)O2)cc1Br (stereo not drawn) ?
a: -1

q: Any idea what this test logged for "CN(C)N=Nc1cn[nH]c1C(N)=O" ?
a: -1

q: Any idea what this test logged for "C(C#CCN1CCOCC1)#CCN1CCOCC1" ?
a: -1

###

- Tested on: B6C3F1 mice, B16 melanoma ip, median survival T/C
- experimentDescription: NCI In Vivo Anticancer Drug Screen. Data for tumor model B16 Melanoma (intraperitoneal) in B6C3F1 mice
- protocolConditions: endpoint: median survival time; dose: 200.0 mg/kg/injection; schedule: Q01DX009 (ip); vehicle: saline with Tween-80; higher = longer survival
Toxic doses and inconclusive results are not listed. Where a SMILES comes first, the peptide text is derived from it. The star is where a group is joined. Cbz = O=C(OCc1ccccc1)*; Bn = c1ccc(C*)cc1
reportedProperty: T/C

Here's what some known entries look like.
compound=O=C(Oc1cc(Cl)ccc1Cl)c1ccccc1 tgt="B6C3F1 mice, B16 melanoma ip, median survival T/C" reading="91 % of control"
compound=CCN(CC)CC(=O)c1ccc(O)c(O)c1 tgt="B6C3F1 mice, B16 melanoma ip, median survival T/C" reading="107 % of control"
compound=O=C1C(Cl)=C(Cl)C(=O)C2=C1C1c3ccccc3C2c2ccccc21 tgt="B6C3F1 mice, B16 melanoma ip, median survival T/C" reading="86 % of control"
compound="O=C(CCl)NC(Cc1ccccc1)C(=O)O (stereo unspecified)" tgt="B6C3F1 mice, B16 melanoma ip, median survival T/C" reading="90 % of control"
compound=O=c1oc2c(O)c(O)cc3c(=O)oc4c(O)c(O)cc1c4c23 tgt="B6C3F1 mice, B16 melanoma ip, median survival T/C" reading="115 % of control"
compound=S=C(NCNC(=S)c1ccncc1)c1ccncc1 tgt="B6C3F1 mice, B16 melanoma ip, median survival T/C" reading="100 % of control"
compound="O=C(NC(CSCc1ccccc1)C(=O)NC(Cc1ccc(O)cc1)C(=O)O)OCc1ccccc1 (stereo unspecified) (Cbz-Cys(Bn)-Tyr-OH; configuration not given here)" tgt="B6C3F1 mice, B16 melanoma ip, median survival T/C" reading="101 % of control"
compound="O=C(O)CNC(=O)CNC(=O)C(Cc1cnc[nH]1)NC(=O)OCc1ccccc1 (stereo unspecified) (HELM PEPTIDE1{[O=C(OCc1ccccc1)[*:2]].[O=C(C(Cc1c[nH]cn1)N[*:1])[*:2]].G.G}$$$$V2.0)" tgt="B6C3F1 mice, B16 melanoma ip, median survival T/C" reading="91 % of control"
compound=O=C(O)/C=C/C(=O)N1Cc2cc3ccccc3nc2C1 tgt="B6C3F1 mice, B16 melanoma ip, median survival T/C" reading="95 % of control"
compound=O=Cc1ccc(O)c(O)c1 tgt="B6C3F1 mice, B16 melanoma ip, median survival T/C" reading="89 % of control"

Okay, next one:
q: What does the record list as T/C for "CCC(CC)COC(=O)c1ccccc1C(=O)OCC(CC)CC" ?
a: 106 % of control

###

- System: B6C3F1 mice, B16 melanoma ip, median survival T/C
- experimentDescription: NCI In Vivo Anticancer Drug Screen. Data for tumor model B16 Melanoma (intraperitoneal) in B6C3F1 mice
- protocolConditions: endpoint: median survival time; dose: 12.0 mg/kg/injection; schedule: Q01DX009 (ip); vehicle: Klucel (hydroxypropylcellulose) (HPC)
- Experimental: The antitumor activity of compounds was measured in mice bearing transplantable tumors. Survival or tumor size were measured and the results are expressed as the measurement made in the treated group (T) divided by the measurement made in the vehicle treated control group (C). The tumor model used in this assay is B16 Melanoma (intraperitoneal) in B6C3F1 mice
Toxic doses and inconclusive results are not listed. How the source made its calls: active means survival T/C of 150% or more; inactive means T/C below 125% in these data. Where a SMILES comes first, the peptide text is derived from it. The star is where a group is joined. Cbz = O=C(OCc1ccccc1)*
Entry note: the call must match one of Yes (active), No (inactive)

Reference set (5 entries):
molecule=O=C1NC(=O)NC(C(=O)O)N1 qualitativelabel=No
molecule=c1ccc2c(NCCCCCCNc3c4ccccc4nc4ccccc34)c3ccccc3nc2c1 qualitativelabel=Yes
molecule=Nc1c(/C=C/c2cc3cc(C4=NCCN4)ccc3o2)[nH]c2cc(C3=NCCN3)ccc12 qualitativelabel=No
molecule="C=C1C(C)C2C(Cc3ccccc3)NC(=O)C23C(OC(C)=O)/C=C/C(C)(O)CC(C)C/C=C/C3C1O (stereo unspecified)" qualitativelabel=No
molecule="CC(NC(=O)OCc1ccccc1)C(=O)NC(CC(N)=O)C(=O)O (stereo not drawn) (Cbz-Ala-Asn-OH; configuration not given here)" qualitativelabel=No

# next molecule below
q: Any idea what this test logged for CCC(C)Nc1ccc(N)cc1 (stereo unspecified) ?
a: No
